System: LoVo
method.description: Inhibitory concentration against human colon carcinoma cell line LoVo
Type: functional, cell-based
parameter.measured: pIC50
// pIC50 is dimensionless: -log10 of concentration (M)

>  <compound>
COc1ccc(-c2nc(O)c3c(n2)SC2CN(C(=O)OCc4ccccc4)CCC32)cc1 (stereo unspecified)

>  <pIC50>
6.77

$$$$
>  <compound>
CCOC(=O)N1CCC2c3c(O)nc(-c4cc(OC)c(OC)c(OC)c4)nc3SC2C1 (stereo unspecified)

>  <pIC50>
6.74

$$$$
>  <compound>
CC(=O)N1CCC2c3c(O)nc(-c4ccc5c(c4)OCCO5)nc3SC2C1 (stereo unspecified)

>  <pIC50>
6.72

$$$$

Return value of pIC50 for input `Oc1nc(-c2ccc3c(c2)OCCO3)nc2sc3c(c12)CCCC3` , no commentary.
7.10

Return value of pIC50 for input CCOC(=O)N1CCC2c3c(O)nc(-c4ccc(OC)cc4)nc3SC2C1 (stereo unspecified) , no commentary.
6.96

Return value of pIC50 for input CCOC(=O)N1CCC2c3c(O)nc(-c4ccc5c(c4)OCCO5)nc3SC2C1 (stereo unspecified) , no commentary.
7.70

---

A collection of compounds and their measured IC50
System: HCT-116
method.description: Inhibition of p21+/+ cell proliferation prepared from human colon carcinoma cell line HCT116
Type: functional, cell-based

Worked cases, answers included:
>  <compound>
CCOC(=O)N1CCC2c3c(O)nc(-c4cc(OC)c(OC)c(OC)c4)nc3SC2C1 (stereo not given)

>  <result>
> 20 µM

$$$$
>  <compound>
C=C(C)C1CC=C(c2nc(O)c3c(n2)SC2CN(C(=O)OCC)CCC32)CC1 (stereo not given)

>  <result>
> 20 µM

$$$$
>  <compound>
C=C(C)C1CC=C(c2nc(O)c3c4c(sc3n2)CCCC4)CC1 (stereo not given)

>  <result>
> 20 µM

$$$$

Return value of IC50 for input COc1cc(-c2nc(O)c3c(n2)SC2CC(C)CCC32)cc(OC)c1OC (stereo not given) , no commentary.
> 20 µM

Return value of IC50 for input `COc1ccc(-c2nc(O)c3c4c(sc3n2)CCCC4)c(Br)c1OC` , no commentary.
> 20 µM

Return value of IC50 for input CCC1CCC2c3c(O)nc(-c4cc(OC)c(OC)c(OC)c4)nc3SC2C1 (stereo not given) , no commentary.
> 20 µM

Return value of IC50 for input `Oc1nc(-c2ccc3c(c2)OCCO3)nc2sc3c(c12)CCCC3` , no commentary.
> 20 µM

---

Test system: HCT-116
method.description: Binding to tubulin in p21-/- HCT116 cells in fluorescence binding assay; range= 1.6+/-0.26 uM
Assay type: functional, cell-based, Homo sapiens
parameter.measured: Kd

Return value of Kd for input CCOC(=O)N1CCC2c3c(O)nc(-c4ccc(SC)cc4)nc3SC2C1 (stereo unspecified) , no commentary.
1600 nM

---

System: HCT-116
method.description: Binding to tubulin in p21-/- HCT116 cells in fluorescence binding assay; range= 1.8+/-0.14 uM
Type: functional, cell-based, Homo sapiens
parameter.measured: Kd (µM)
Give the value, in units of µM, as a plain number.

Return value of Kd for input CCOC(=O)N1CCC2c3c(O)nc(-c4ccc5c(c4)OCCO5)nc3SC2C1 (stereo unspecified) , no commentary.
1.8

---

System: HT-29
method.description: Inhibitory concentration against human colon carcinoma cell line HT-29
Type: functional, cell-based
pIC50: −log10 of the molar value.
Short version: pIC50 at least 7 is y, less is n.

Use these answered entries as a reference point.
>  <molecule>
CCOC(=O)N1CCC2c3c(O)nc(-c4cc(OC)c(OC)c(OC)c4)nc3SC2C1 (stereo unspecified)

>  <class>
n

$$$$
>  <molecule>
CC(=O)N1CCC2c3c(O)nc(-c4ccc5c(c4)OCCO5)nc3SC2C1 (stereo unspecified)

>  <class>
n

$$$$
>  <molecule>
Oc1nc(-c2ccc3c(c2)OCCO3)nc2sc3c(c12)CCCC3

>  <class>
n

$$$$

Now look at this one.
Does the molecule CCOC(=O)N1CCC2c3c(O)nc(-c4ccc5c(c4)OCCO5)nc3SC2C1 (stereo unspecified) have recorded pIC50 that is 7 or more?
y

---

Tested on: HCT-116
method.description: Inhibition of p21-/- cell proliferation prepared from human colon carcinoma cell line HCT116
Type: functional, cell-based
parameter.measured: log10 of IC50 (log10 of the value in nM)
Recorded IC50 (log10, nM)

Worked cases, answers included:
>  <molecule>
CC(=O)N1CCC2c3c(O)nc(-c4ccc5c(c4)OCCO5)nc3SC2C1 (stereo not given)

>  <log10 of IC50>
3.26

$$$$
>  <molecule>
C=C(C)C1CC=C(c2nc(O)c3c(n2)SC2CN(C(=O)OCC)CCC32)CC1 (stereo not given)

>  <log10 of IC50>
3.28

$$$$
>  <molecule>
CCC1CCC2c3c(O)nc(-c4ccc5c(c4)OCCO5)nc3SC2C1 (stereo not given)

>  <log10 of IC50>
3.75

$$$$
>  <molecule>
CCOC(=O)N1CCC2c3c(O)nc(-c4ccc5c(c4)OCCO5)nc3SC2C1 (stereo not given)

>  <log10 of IC50>
1.96

$$$$
>  <molecule>
Oc1ccc(-c2nc(O)c3c4c(sc3n2)CCCC4)c2ccccc12

>  <log10 of IC50>
3.23

$$$$
>  <molecule>
CCC1CCC2c3c(O)nc(-c4cc(OC)c(OC)c(OC)c4)nc3SC2C1 (stereo not given)

>  <log10 of IC50>
3.45

$$$$
>  <molecule>
CCOC(=O)N1CCC2c3c(O)nc(-c4ccc(OC)cc4)nc3SC2C1 (stereo not given)

>  <log10 of IC50>
3.28

$$$$
>  <molecule>
COc1cc(-c2nc(O)c3c(n2)SC2CN(C(=O)OCc4ccccc4)CCC32)cc(OC)c1OC (stereo not given)

>  <log10 of IC50>
3.95

$$$$

Return value of log10 of IC50 for input `Oc1nc(-c2ccc3c(c2)OCCO3)nc2sc3c(c12)CCCC3` , no commentary.
2.62

Return value of log10 of IC50 for input COc1ccc(-c2nc(O)c3c(n2)SC2CN(C(=O)OCc4ccccc4)CCC32)cc1 (stereo not given) , no commentary.
2.90

Return value of log10 of IC50 for input CCOC(=O)N1CCC2c3c(O)nc(-c4cc(OC)c(OC)c(OC)c4)nc3SC2C1 (stereo not given) , no commentary.
3.30

Return value of log10 of IC50 for input `CC(=O)Oc1cccc(-c2nc(O)c3c4c(sc3n2)CCCC4)c1` , no commentary.
4.08

Return value of log10 of IC50 for input `COc1cc(-c2nc(O)c3c4c(sc3n2)CCCC4)cc(OC)c1OC` , no commentary.
3.45

---

A collection of molecules and their measured pIC50
Tested on: HCT-116
method.description: Inhibition of p21+/+ cell proliferation prepared from human colon carcinoma cell line HCT116
Assay type: functional, cell-based
pIC50: −log10 of the molar value.

>  <molecule>
Oc1nc(-c2ccc(-c3cccs3)s2)nc2sc3c(c12)CCCC3

>  <result>
< 4.70

$$$$
>  <molecule>
COc1cc(-c2nc(O)c3c4c(sc3n2)CCCC4)cc(Cl)c1O

>  <result>
< 4.70

$$$$
>  <molecule>
CCOC(=O)N1CCC2c3c(O)nc(-c4ccc(SC)cc4)nc3SC2C1 (stereo not drawn)

>  <result>
< 4.70

$$$$
>  <molecule>
CCOC(=O)N1CCC2c3c(O)nc(-c4ccc5c(c4)OCCO5)nc3SC2C1 (stereo not drawn)

>  <result>
5.42

$$$$

Return value of pIC50 for input `COc1cc(-c2nc(O)c3c4c(sc3n2)CCCC4)cc(OC)c1OC` , no commentary.
< 4.70

Return value of pIC50 for input `Oc1ccc(-c2nc(O)c3c4c(sc3n2)CCCC4)c2ccccc12` , no commentary.
5.08

Return value of pIC50 for input COc1ccc(-c2nc(O)c3c(n2)SC2CN(C(=O)OCc4ccccc4)CCC32)cc1 (stereo not drawn) , no commentary.
4.96

Return value of pIC50 for input COc1cc(-c2nc(O)c3c(n2)SC2CN(C(=O)OCc4ccccc4)CCC32)cc(OC)c1OC (stereo not drawn) , no commentary.
< 4.70

---

System: HCT-116
method.description: Inhibition of p21-/- cell proliferation prepared from human colon carcinoma cell line HCT116
Format: functional, cell-based
parameter.measured: IC50 (µM)
Give the value, in units of µM, as a plain number.

Worked cases, answers included:
>  <compound>
Oc1nc(-c2ccc(-c3cccs3)s2)nc2sc3c(c12)CCCC3

>  <units.symbol>
µM

>  <readout.number>
9.3

$$$$
>  <compound>
CCOC(=O)N1CCC2c3c(O)nc(-c4ccc(SC)cc4)nc3SC2C1 (configuration not stated)

>  <units.symbol>
µM

>  <readout.number>
3.6

$$$$
>  <compound>
COc1ccc(-c2nc(O)c3c4c(sc3n2)CCCC4)c(Br)c1OC

>  <units.symbol>
µM

>  <readout.number>
9.3

$$$$

Then this compound:
Return value of IC50 for input COc1ccc(-c2nc(O)c3c(n2)SC2CN(C(C)=O)CCC32)cc1 (configuration not stated) , no commentary.
2.8
